TESTED_ON: human ether-à-go-go-related gene (hERG) potassium channel (human, UniProt Q12809)
Sequence (Q12809 whole entry, looked up): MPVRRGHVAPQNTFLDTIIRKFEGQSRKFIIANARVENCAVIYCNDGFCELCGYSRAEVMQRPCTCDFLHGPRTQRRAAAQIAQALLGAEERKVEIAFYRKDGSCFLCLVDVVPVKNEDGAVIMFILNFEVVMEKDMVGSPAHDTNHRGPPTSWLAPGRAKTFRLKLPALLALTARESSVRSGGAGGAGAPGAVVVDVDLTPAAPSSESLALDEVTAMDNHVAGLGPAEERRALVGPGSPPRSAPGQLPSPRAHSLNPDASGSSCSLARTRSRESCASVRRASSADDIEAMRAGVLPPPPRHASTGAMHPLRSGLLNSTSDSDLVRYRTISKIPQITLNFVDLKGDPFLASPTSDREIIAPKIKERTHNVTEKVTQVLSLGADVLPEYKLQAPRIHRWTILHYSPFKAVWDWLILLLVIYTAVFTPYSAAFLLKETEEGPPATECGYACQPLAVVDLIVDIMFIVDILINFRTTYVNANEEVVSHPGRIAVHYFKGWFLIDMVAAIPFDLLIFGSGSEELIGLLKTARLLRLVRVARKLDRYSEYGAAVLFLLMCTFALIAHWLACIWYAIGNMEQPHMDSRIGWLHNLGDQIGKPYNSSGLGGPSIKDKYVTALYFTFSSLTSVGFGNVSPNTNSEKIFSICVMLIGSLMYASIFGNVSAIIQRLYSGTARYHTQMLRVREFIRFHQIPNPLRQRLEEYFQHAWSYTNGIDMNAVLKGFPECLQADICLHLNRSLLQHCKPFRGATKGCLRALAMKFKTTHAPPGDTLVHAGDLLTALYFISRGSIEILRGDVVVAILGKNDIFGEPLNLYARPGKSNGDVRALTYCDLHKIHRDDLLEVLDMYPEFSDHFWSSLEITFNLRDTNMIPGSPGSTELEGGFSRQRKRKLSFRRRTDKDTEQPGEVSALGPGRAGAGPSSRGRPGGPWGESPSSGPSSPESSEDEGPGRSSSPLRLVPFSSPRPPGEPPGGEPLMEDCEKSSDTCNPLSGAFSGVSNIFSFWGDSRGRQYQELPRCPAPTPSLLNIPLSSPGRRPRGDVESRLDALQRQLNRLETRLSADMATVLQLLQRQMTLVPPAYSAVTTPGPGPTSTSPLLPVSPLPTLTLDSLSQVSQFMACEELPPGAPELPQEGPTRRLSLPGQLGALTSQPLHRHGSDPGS
ASSAY: primary screen, population patch clamp on CHO cells stably expressing hERG; higher = less effect of the substance;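 further: peak tail current of the secondary pulse compared with the same well before compound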
Procedure: Briefly, Chinese hamster ovary (CHO) cells stably expressing the hERG channel were dislodged from tissue culture flasks and dispensed into PPC plates. […] During the recording, background leak currents were estimated by a 100 ms step to -80 mV from an initial holding potential of -70 mV and subtracted from the subsequent current measurement. The campaign was conducted in two phases using slight differences in recording protocol. […]
Out of some 310,000 compounds screened, about 14,000 (4.5%) showed an effect of 50% or more. Effects have a minus sign here. This is one part of a sample in which strong results are shown more often than they occur.
Note that class boundaries on hERG current change (%, negative = inhibition) at 10uM are I (below -10%), II (-10% to below 10%), III (10% or more)

(Q) Class for NC(=O)COc1cccc(/C=N/NC(=O)c2ccc(-n3cccc3)cc2)c1 ?
(A) III

(Q) Kindly state the category for this compound: CCOC(=O)N1CCC(N2C(=O)c3ccccc3C2Nc2cc(C(=O)OC)cc(C(=O)OC)c2)CC1 (stereo not shown)
(A) I

(Q) Each compound maps to one class by hERG current change (%, negative = inhibition) at 10uM. Which class for Cn1ncc(Br)c1C(=O)NC1CCCC1 ?
(A) III

(Q) Consider CCOc1ccc(CCNC(=O)CS(=O)Cc2nc(-c3ccccc3Cl)oc2C)cc1OCC (stereo not shown) . To which hERG current change (%, negative = inhibition) at 10uM class does it belong?
(A) I

(Q) State the class of the compound shown: COc1ccc(C(=O)C[n+]2ccccc2C)cc1.[Br-]
(A) III

(Q) Quick check: band for CCOC(=O)c1[nH]cnc1C(=O)N[C@@H](C)c1ccccc1
(A) II

(Q) Using the reported hERG current change (%, negative = inhibition) at 10uM, which band applies to Clc1ccc(/C=N/Nc2nn[nH]n2)cc1 ?
(A) III

(Q) State the band of Cc1cc(Cl)cc(C)c1OCCCCCn1ccnc1
(A) I

(Q) Just checking, what class would you give CCOC(=O)N1CCC(N2C(=O)c3ccccc3C2Nc2ccc3c(c2)OCCO3)CC1 (stereo not shown) here?
(A) II
